Listing of recorded AC50 by entry.
- targetSystem: human CYP2B6, CYP2B6 (gene 1555) (UniProt P20813)
- Sequence (P20813 whole entry, looked up): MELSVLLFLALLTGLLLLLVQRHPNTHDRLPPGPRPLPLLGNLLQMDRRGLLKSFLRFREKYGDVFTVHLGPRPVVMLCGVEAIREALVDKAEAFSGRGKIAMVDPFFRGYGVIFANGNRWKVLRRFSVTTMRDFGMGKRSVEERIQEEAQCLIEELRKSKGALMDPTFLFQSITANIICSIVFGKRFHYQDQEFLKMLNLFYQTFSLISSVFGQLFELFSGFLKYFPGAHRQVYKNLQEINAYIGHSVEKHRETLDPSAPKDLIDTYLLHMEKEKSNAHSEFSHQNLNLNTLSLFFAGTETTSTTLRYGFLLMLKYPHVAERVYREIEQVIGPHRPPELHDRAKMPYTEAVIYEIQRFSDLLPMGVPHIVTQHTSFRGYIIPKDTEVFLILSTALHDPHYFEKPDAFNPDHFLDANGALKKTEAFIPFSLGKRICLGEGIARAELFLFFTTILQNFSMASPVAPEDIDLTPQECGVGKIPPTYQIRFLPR
- testProtocol: NVS_ADME_hCYP2B6: NovaScreen (NVS) CYP450-related Enzyme Activity (ADME) Assay for human CYP2B6 (AID 2283101)
Results filed as inconclusive are left out. Activity calls are given as the source filed them. Rule for the calls: active = hit-call score of the fitted dose curve at least 0.9, where 1 is the maximum; inconclusive = response in the unintended direction; inactive = score below 0.9.

[
  {
    "structureSmiles": "CCCCCCCCn1sccc1=O",
    "AC50": "975 nM (active)"
  },
  {
    "structureSmiles": "Nc1ccc(N=Nc2ccccc2)cc1",
    "AC50": "261 nM (active)"
  },
  {
    "structureSmiles": "Cc1cc(N=Nc2ccccc2C)ccc1N",
    "AC50": "1710 nM (active)"
  },
  {
    "structureSmiles": "Nc1ccc(Cc2ccc(N)cc2)cc1",
    "AC50": "719 nM (active)"
  },
  {
    "structureSmiles": "CCOC(=O)[C@]1(c2ccccc2)Oc2ccccc2[C@@H]1N",
    "AC50": "269 nM (active)"
  }
]

###

- Read-out: Nuclear factor erythroid 2-related factor 2 (Homo sapiens) (UniProt Q16236)
- Sequence (Q16236 whole entry, looked up): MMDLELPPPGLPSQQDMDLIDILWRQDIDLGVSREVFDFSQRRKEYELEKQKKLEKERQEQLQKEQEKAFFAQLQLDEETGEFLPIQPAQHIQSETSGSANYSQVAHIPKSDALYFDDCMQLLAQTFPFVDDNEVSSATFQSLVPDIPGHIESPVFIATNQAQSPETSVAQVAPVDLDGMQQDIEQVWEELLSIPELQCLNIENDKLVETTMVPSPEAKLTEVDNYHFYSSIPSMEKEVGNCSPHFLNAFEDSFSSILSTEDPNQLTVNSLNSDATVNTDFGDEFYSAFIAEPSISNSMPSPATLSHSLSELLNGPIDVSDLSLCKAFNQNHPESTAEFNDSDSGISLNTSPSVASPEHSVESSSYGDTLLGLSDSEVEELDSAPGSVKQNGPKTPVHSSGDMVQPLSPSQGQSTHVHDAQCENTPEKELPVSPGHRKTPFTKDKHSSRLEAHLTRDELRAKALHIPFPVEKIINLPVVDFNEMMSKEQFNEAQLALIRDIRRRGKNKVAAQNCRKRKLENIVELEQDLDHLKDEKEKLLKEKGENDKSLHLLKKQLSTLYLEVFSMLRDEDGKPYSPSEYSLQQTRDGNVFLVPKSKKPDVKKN
- testProtocol: LTEA_HepaRG_NFE2L2: Life Technologies and Expression Analysis (LTEA) Assay for Nuclear factor erythroid 2-related factor 2 (NFE2L2) Transcription Factor using HepaRG (AID 2283527)
- condition: mRNA level, 48 h; actives raise or lower the signal
Activity calls are given as the source filed them. The calls were made as follows: active = hit-call score of the fitted dose curve at least 0.9, where 1 is the maximum; inactive = score below 0.9.
measurementLabel: AC50

[
  {
    "compound": "Nc1ccc(Oc2ccc(N)cc2)cc1",
    "measurementLabel": "AC50",
    "valueReported": "inactive"
  },
  {
    "compound": "CC(C)N(Cc1ccccc1)C(=O)C(C)(C)C",
    "measurementLabel": "AC50",
    "valueReported": "inactive"
  },
  {
    "compound": "CN(C)c1ccc(C(=O)c2ccc(N(C)C)cc2)cc1",
    "measurementLabel": "AC50",
    "valueReported": "inactive"
  },
  {
    "compound": "[As]#[In]",
    "measurementLabel": "AC50",
    "valueReported": "inactive"
  },
  {
    "compound": "OCCCBr",
    "measurementLabel": "AC50",
    "valueReported": "inactive"
  },
  {
    "compound": "O=[N+]([O-])C(Br)(CO)CO",
    "measurementLabel": "AC50",
    "valueReported": "inactive"
  },
  {
    "compound": "O=C(N[C@H](c1ccccc1)[C@@H]1CN2CCC1CC2)c1c(Cl)ccc(C(F)(F)F)c1Cl",
    "measurementLabel": "AC50",
    "valueReported": "71.5 µM (active)"
  },
  {
    "compound": "N#CC(Br)Br",
    "measurementLabel": "AC50",
    "valueReported": "inactive"
  },
  {
    "compound": "OCCCl",
    "measurementLabel": "AC50",
    "valueReported": "inactive"
  },
  {
    "compound": "ClCCOCCCl",
    "measurementLabel": "AC50",
    "valueReported": "inactive"
  },
  {
    "compound": "CCC12COCN1COC2",
    "measurementLabel": "AC50",
    "valueReported": "inactive"
  },
  {
    "compound": "Nc1ccc(Cl)cc1N",
    "measurementLabel": "AC50",
    "valueReported": "12.2 µM (active)"
  },
  {
    "compound": "c1ccc(C2CO2)cc1 (stereo unspecified)",
    "measurementLabel": "AC50",
    "valueReported": "inactive"
  },
  {
    "compound": "COP(=S)(OC)SCN1C(=O)c2ccccc2C1=O",
    "measurementLabel": "AC50",
    "valueReported": "inactive"
  },
  {
    "compound": "CCCCCCCCOC(=O)c1ccc(C(=O)OCCCCCCCC)c(C(=O)OCCCCCCCC)c1",
    "measurementLabel": "AC50",
    "valueReported": "inactive"
  },
  {
    "compound": "CN(C)C(=O)Nc1ccc(Cl)cc1",
    "measurementLabel": "AC50",
    "valueReported": "inactive"
  },
  {
    "compound": "O=P(OCCCl)(OCCCl)OCCCl",
    "measurementLabel": "AC50",
    "valueReported": "inactive"
  },
  {
    "compound": "CCCCCCCCn1sccc1=O",
    "measurementLabel": "AC50",
    "valueReported": "inactive"
  },
  {
    "compound": "c1ccc(NNc2ccccc2)cc1",
    "measurementLabel": "AC50",
    "valueReported": "inactive"
  },
  {
    "compound": "CCCSC(=O)N(CCC)CCC",
    "measurementLabel": "AC50",
    "valueReported": "inactive"
  },
  {
    "compound": "Cc1ccc([N+](=O)[O-])cc1",
    "measurementLabel": "AC50",
    "valueReported": "inactive"
  }
]
